System: SAUR 9218
Assay: MIC Test Method, standard agar dilution
Assay type: cell-based
Conditions: agar dilution, Mueller Hinton agar, incubated overnight at 35° C.; lowest concentration that inhibits visible growth; read-out: SAUR 9218 MIC
Method: The in vitro MiCs of test compounds were determined by a standard agar dilution method. A stock drug solution of each analog was prepared in the preferred solvent, usually DMSO:H2O (1:3). Serial 2-fold dilutions of each sample are made using 1.0 ml aliquots of sterile distil]ed water. […] Following incubation the Minimum Inhibitory Concentration (MIC μg/ml), the lowest concentration of drug that inhibits visible growth of the organism, was read and recorded.
readout.label: MIC (µg/mL)

[[record]]
molecule = "N#Cc1ccc(NC(=O)c2cc(-c3ccccc3OCC3CCCCO3)on2)c(C(=O)O)c1 (stereo not shown)"
readout_unit = "µg/mL"
test_value = 2

[[record]]
molecule = "Cn1cccc1-c1cnc(C(=O)Nc2ccc(C#N)cc2C(=O)O)o1"
readout_unit = "µg/mL"
test_value = 2

[[record]]
molecule = "COCC(=O)Nc1ccc2cc(C(=O)Nc3ccc(C#N)cc3C(=O)O)n(C)c2c1"
readout_unit = "µg/mL"
test_value = 2

[[record]]
molecule = "CCCn1c(C(=O)Nc2ccc(C#N)cc2C(=O)O)cc2ccccc21"
readout_unit = "µg/mL"
test_value = 2

[[record]]
molecule = "CCCCSc1cnc(C(=O)Nc2ccc(C#N)cc2C(=O)O)cn1"
readout_unit = "µg/mL"
test_value = 0.125


I. C#Cc1cncc(C(=O)Nc2ccc(C#N)cc2C(=O)O)c1
II. Cn1c(C(=O)Nc2ccc(C#N)cc2C(=O)O)cc2ccc(NS(=O)(=O)c3cccs3)cc21
III. N#Cc1ccc(NC(=O)c2noc3ccc(NS(=O)(=O)c4ccc(F)cc4)cc23)c(C(=O)O)c1
*Q* List items by MIC in falling order. Use the labels to give the ranking in the order requested.
*A* I, II, III

###

Test system: SAUR 9218
Experiment: MIC Test Method, standard agar dilution
Format: cell-based
Settings: agar dilution, Mueller Hinton agar, incubated overnight at 35° C.; lowest concentration that inhibits visible growth; read-out: SAUR 9218 MIC
readout.label: MIC (µg/mL)

[[record]]
compound = "CC1(C(=O)Nc2cccc3cc(C(=O)Nc4ccc(C#N)cc4C(=O)O)[nH]c23)CC1"
test_value = 2

[[record]]
compound = "CCCCC(=O)Nc1cccc2cc(C(=O)Nc3ccc(C#N)cc3C(=O)O)[nH]c12"
test_value = 0.5

[[record]]
compound = "Cl.Cn1c(C(=O)Nc2ccc(C#N)cc2C(=O)O)cc2cccc(OCC(O)CN3CCOCC3)c21 (stereo not drawn)"
test_value = 1


A. CCO/N=C1\CCn2c(C(=O)Nc3ccc(C#N)cc3C(=O)O)cc3cccc1c32
B. Cc1noc(-c2ccccc2)c1C(=O)Nc1cccc2cc(C(=O)Nc3ccc(C#N)cc3C(=O)O)[nH]c12
C. Cn1c(C(=O)Nc2ccc(C#N)cc2C(=O)O)cc2cccc(OC3CCC3)c21
*Q* Falling order of MIC, please. Labels, requested order.
*A* A, B, C

###

Tested on: SAUR 9218
Experiment: MIC Test Method, standard agar dilution
Format: cell-based
Details: agar dilution, Mueller Hinton agar, incubated overnight at 35° C.; lowest concentration that inhibits visible growth; read-out: SAUR 9218 MIC
readout.label: MIC (µg/mL)

[[record]]
compound = "C[C@@H]1CCCC1Oc1ccccc1-c1cc(C(=O)Nc2ccc(C#N)cc2C(=O)O)no1 (stereo partly drawn)"
readout_label = "MIC"
readout_unit = "µg/mL"
test_value = 0.125

[[record]]
compound = "CCC(C)Sc1ccc(C(=O)Nc2ccc(C#N)cc2C(=O)O)cn1 (stereo not drawn)"
readout_label = "MIC"
readout_unit = "µg/mL"
test_value = 0.5


I. Cn1c(C(=O)Nc2ccc(C#N)cc2C(=O)O)cc2cccc(NC(=O)Cc3ccc(F)cc3)c21
II. N#Cc1ccc(NC(=O)c2cc(-c3ccccc3)nc3ccccc23)c(C(=O)O)c1
III. N#Cc1ccc(NC(=O)c2noc3ccc(-c4ccccc4CO)cc23)c(C(=O)O)c1
IV. Cn1c(C(=O)Nc2ccc(C#N)cc2C(=O)O)cc2c(Br)cc(Br)c(NC(=O)Cc3ccccc3)c21
*Q* Order field: MIC | Direction: descending (largest first) Response field: labels, in requested order.
*A* II, IV, III, I

1. Cn1c(C(=O)Nc2ccc(Br)cc2C(=O)O)cc2ccccc21
2. Cc1c(C(=O)Cc2cncc(C(=O)Nc3ccc(C#N)cc3C(=O)O)c2)c(=O)n(-c2ccccc2)n1C
*Q* Among 1 and 2 , whose measured MIC is the smaller figure? Your answer should be the label attached to the chosen record.
*A* 1

A. N#Cc1ccc(NC(=O)c2noc3ccc(N)cc23)c(C(=O)O)c1
B. Cc1noc(C)c1-c1ccc2c(C(=O)Nc3ccc(C#N)cc3C(=O)O)noc2c1
C. O=C(Nc1ccc(Br)cc1C(=O)O)c1cnc(/C=C/C2COC3(CCCCC3)O2)cn1 (stereo not drawn)
*Q* Please list these in order of increasing MIC. Thank you! Sort the labels as requested; that list is your answer.
*A* B, A, C
(B: 0.125 µg/mL, A: 0.5 µg/mL, C: 8 µg/mL)

a. CCCCCCSc1ccc(C(=O)Nc2ccc(Br)cc2C(=O)O)nc1
b. CCCCn1c(C(=O)Nc2ccc(C#N)cc2C(=O)O)cc2ccccc21
*Q* // task: argmin of MIC over [ a , b ] Output the label that corresponds to your choice.
*A* a
(a: 0.5 µg/mL, b: 32 µg/mL)

a. COCC(=O)Nc1cccc2cc(C(=O)Nc3ccc(C#N)cc3C(=O)O)[nH]c12
b. CCCCCCSc1cnc(C(=O)Nc2ccc(C#N)cc2C(=O)O)cn1
c. O=C(Nc1ccc(Br)cc1C(=O)O)c1ccc2c(c1)C(=O)N(CC1CCCO1)C2=O (stereo not drawn)
d. CCCCCCCCCSc1ccc(C(=O)Nc2ccc(C#N)cc2C(=O)O)cn1
*Q* Please give the order of these compounds when sorted by MIC, largest value leading. Rank the items, then write their labels in that order.
*A* c, a, d, b
(c: 8 µg/mL, a: 4 µg/mL, d: 1 µg/mL, b: 0.125 µg/mL)

###

System: SAUR 9218
Assay: MIC Test Method, standard agar dilution
Type: cell-based
Details: agar dilution, Mueller Hinton agar, incubated overnight at 35° C.; lowest concentration that inhibits visible growth; read-out: SAUR 9218 MIC
readout.label: MIC (µg/mL)

a. CCC(C)Sc1cnc(C(=O)Nc2ccc(Cl)cc2C(=O)O)cn1 (stereo not drawn)
b. N#Cc1ccc(NC(=O)c2ccc3c(c2)OCO3)c(C(=O)O)c1
c. N#Cc1ccc(/C=C/c2cc(-c3ccccc3)on2)c(C(=O)O)c1
*Q* Arrange the 3 compounds by rising MIC, starting with the smallest. Answer format: the labels, in the requested order.
*A* a, b, c
(a: 0.25 µg/mL, b: 16 µg/mL, c: 64 µg/mL)

###

Tested on: SAUR 9218
Assay: MIC Test Method, standard agar dilution
Assay type: cell-based
Conditions: agar dilution, Mueller Hinton agar, incubated overnight at 35° C.; lowest concentration that inhibits visible growth; read-out: SAUR 9218 MIC
readout.label: MIC (µg/mL)

Some compounds with known MIC results, for comparison:
[[record]]
compound = "COc1ccc(-c2ccc3cc(C(=O)Nc4ccc(C#N)cc4C(=O)O)n(C)c3c2)c(OC)c1OC"
test_value = 0.25

[[record]]
compound = "COc1ccc(-c2cc(C(=O)Nc3ccc(Cl)cc3C(=O)O)no2)cc1"
test_value = 0.25

[[record]]
compound = "N#Cc1ccc(NC(=O)c2cc3cccc(NC(=O)c4ccccc4O)c3[nH]2)c(C(=O)O)c1"
test_value = 1

[[record]]
compound = "Cc1sc(C(=O)Nc2ccc(Br)cc2C(=O)O)cc1S(=O)(=O)Nc1ccc2c(c1)OCCO2"
test_value = 8

[[record]]
compound = "COCc1onc(C(=O)Nc2ccc(C#N)cc2C(=O)O)c1COC"
test_value = 16


a. Cn1c(C(=O)Nc2ccc(C#N)cc2C(=O)O)cc2cccc(OCC3CCC3)c21
b. CSCCOc1cccc2cc(C(=O)Nc3ccc(C#N)cc3C(=O)O)n(C)c12
*Q* When a and b are compared, which has the higher number for MIC? Provide the label of your selected option as the answer.
*A* b

P. COCC(C)Oc1ccccc1-c1cc(C(=O)Nc2ccc(C#N)cc2C(=O)O)no1 (stereo not shown)
Q. O=C(Nc1ccc(Br)cc1C(=O)O)c1cnc2ccccc2n1
R. N#Cc1ccc(NC(=O)c2noc3cc(Br)ccc23)c(C(=O)O)c1
*Q* Form: Sort by [MIC] Order [ ascending ] As an answer, provide the labels arranged in the order called for.
*A* P, R, Q

I. O=C(O)c1cc(Br)ccc1NC(=O)c1cc(SCc2ccccc2)cc[n+]1[O-]
II. N#Cc1ccc(NC(=O)c2ccc(Cl)nc2)c(C(=O)O)c1
III. N#Cc1ccc(NC(=O)c2cc3cccc(NC(=O)CCC4CCCC4)c3[nH]2)c(C(=O)O)c1
*Q* Put the compounds in ascending order of MIC. Would you mind listing the labels in the order asked for?
*A* III, I, II
(III: 0.25 µg/mL, I: 8 µg/mL, II: 16 µg/mL)
